# credit: patent US20240016931A1

tested.on: T1, His-tagged human TSLP antigen (huTSLP-his) (human)
T1 construct: Secreted from HEK293E and purified on nickel; whole entry named; also called Human TSLP-his
test.summary: ELISA, coated huTSLP-his;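 note: binding of antibodies to plate-bound TSLP read as absorbance at 450 nm after TMB colour development, EC50 derived from binding curves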
Here the recorded pEC50 is given for each entry.
Note on pEC50: it is the negative log10 of concentration, concentration in mol/L.

In the examples that follow, each entry is paired with its recorded pEC50.
binder | pEC50
hu179-29 (antibody, human IgG1, kappa, V domains shown, IgG1-YTE, kappa) VH: EVQLVQSGAEVKKPGSSVKVSCKASGYTFSNYLIEWVRQAPGQGLEWIGVIDPGNGDTNYNENFKGRATLTADKSTSTAYIELSSLRSEDTAVYYCAREDNTGTAFDYWGQGTTVTVSS VL: DIVMTQSPDSLAVSLGERATINCKASQSVSSDVTWYQQKPGQSPKLLIYYVSEHYTGVPDRFSGSGSGTDFTLTISSLQAEDVAVYYCQQHHRFPLTFGQGTKLEIKR | 9.69
hu3-10 (antibody, human IgG1, kappa, V domains shown, IgG1-YTE, kappa) VH: EVQLVQSGAEVKKPGASVKVSCKASGYTFTDDYMNWVKQAPGQRLEWIGIISPYNGGTSYNQKFKGRATLTVDKSASTAYMELSSLRSEDTAVYYCAREDYDYDGYAMDHWGQGTTVTVSS VL: EIVLTQSPATLSLSPGERATLSCRASSSVSYMHWYQQKPGQAPRPWIYATSNLASGVPARFSGSGSGTSYTLTISRLEPEDFAVYYCQQWSSNRTFGGGTKVEIKR | 9.41

The binder listed as hu3-01 (antibody, human IgG1, kappa, V domains shown, IgG1-YTE, kappa) VH: EVQLVQSGAEVKKPGASVKVSCKASGYTFTDDYMNWVRQAPGQRLEWMGIISPYNGGTSYNQKFKGRVTITRDTSASTAYMELSSLRSEDTAVYYCAREDYDYDGYAMDHWGQGTTVTVSS VL: EIVLTQSPATLSLSPGERATLSCRASSSVSYMHWYQQKPGQAPRPLIYATSNLASGIPARFSGSGSGTDYTLTISRLEPEDFAVYYCQQWSSNRTFGGGTKVEIKR has a reported pEC50 of 9.07

// pEC50 lookup, binder = hu179-15 (antibody, human IgG1, kappa, V domains shown, IgG1-YTE, kappa) VH: EVQLVQSGAEVKKPGSSVKVSCKASGYAFSNYLIEWVRQAPGQGLEWIGVIDPGNGDTNYNENFKGRATLTADKSTSTAYMELSSLRSEDTAVYYCAREDNTGTAFDYWGQGTTVTVSS VL: SIVMTQSPDSLAVSLGERATINCKASQSVSSDVTWYQQKPGQSPKLLIYYVSNHYTGVPDRFSGSGSGTDFTLTISSLQAEDVAVYYCQQHHRFPLTFGQGTKLEIKR , result: 9.69

Looking up hu179-12 (antibody, human IgG1, kappa, V domains shown, IgG1-YTE, kappa) VH: EVQLVQSGAEVKKPGSSVKVSCKASGYTFSNYLIEWVKQAPGQGLEWIGVIDPGNGDTNYNENFKGKATLTADKSTSTAYIELSRLRSEDTAVYYCAREDNTGTAFDYWGQGTTVTVSS VL: DIVMTQSPDSLAVSLGERATINCKASQSVSSDVTWYQQKPGQPPKLLIYYVSNHYTGVPDRFSGSGSGTDFTLTISSLQAEDVAVYYCQQHHRFPLTFGQGTKLEIKR , I found its pEC50 recorded as 9.84
